TEST SYSTEM: PDE3A catalytic domain (PDE3Acat) (Homo sapiens, UniProt Q14432)
Sequence (Q14432 674-1093 limits assumed): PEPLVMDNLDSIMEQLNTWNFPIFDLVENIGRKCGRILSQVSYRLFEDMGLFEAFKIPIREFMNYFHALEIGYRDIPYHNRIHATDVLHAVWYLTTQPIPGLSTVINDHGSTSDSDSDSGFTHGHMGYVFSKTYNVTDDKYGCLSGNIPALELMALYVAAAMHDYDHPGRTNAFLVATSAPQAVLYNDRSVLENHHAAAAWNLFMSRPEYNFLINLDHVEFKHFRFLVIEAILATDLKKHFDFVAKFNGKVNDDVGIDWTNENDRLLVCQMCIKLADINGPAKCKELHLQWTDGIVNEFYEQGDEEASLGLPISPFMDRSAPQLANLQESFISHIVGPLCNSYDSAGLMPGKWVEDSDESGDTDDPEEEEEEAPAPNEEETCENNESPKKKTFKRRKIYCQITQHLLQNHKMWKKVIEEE
PROCEDURE SUMMARY: Phosphodiesterase inhibitory activity, PDE3 ([3H]cAMP, recombinant enzyme)
ASSAY CONTEXT: 30° C., 20 minutes, read-out: IC50(μmol/L) PDE3
pIC50: −log10 of the molar value.
I'd be grateful if you could share measured pIC50 for these entries.

Example entries begin here.
1. COc1ccc(-c2ccc(=O)n(CCCCOc3ccc(C4=NNC(=O)CC4C)c(F)c3F)n2)c2sc(C(F)(F)F)nc12 (stereo not shown) [Example 307] ... > 7.00
2. COc1ccc(-c2ccc(=O)n(CCCCOc3ccc(C4=NNC(=O)CC4C)c(F)c3F)n2)c2nc(C(F)(F)F)[nH]c12 (stereo not shown) [Example 279] ... > 7.00

Respectfully, I request pIC50 for each entry included below.
1. CCc1ccc2c(C3=NN(CCCCOc4ccc(C5=NNC(=O)CC5C)cc4)C(=O)CC3C)ccc(OC)c2n1 (stereo not shown) [Example 312]
2. COc1ccc(-c2ccc(=O)n(CCCCOc3ccc(C4=NNC(=O)C4(C)C)c(F)c3F)n2)c2nc(C(F)(F)F)nn12 [Example 306]
3. COc1ccc(-c2ccc(=O)n(CCCCOc3ccc(C4=NNC(=O)CC4C)c(F)c3F)n2)c2ccc(C)nc12 (stereo not shown) [Example 273]
4. CCc1ccc2c(-c3ccc(=O)n(CCCCOc4ccc(C5=NNC(=O)CC5C)c(F)c4F)n3)ccc(OC)c2n1 (single isomer, unassigned; (-)) [Example 323]
5. CCc1ccc2c(-c3ccc(=O)n(CCCCOc4ccc(C5=NNC(=O)CC5)cc4)n3)ccc(OC)c2n1 [Example 281]

Response:
6.00 to 7.00
5.00 to 6.00
> 7.00
> 7.00
6.00 to 7.00

###

TEST SYSTEM: UniProtKB Q07343
Sequence (Q07343 330-659 limits assumed): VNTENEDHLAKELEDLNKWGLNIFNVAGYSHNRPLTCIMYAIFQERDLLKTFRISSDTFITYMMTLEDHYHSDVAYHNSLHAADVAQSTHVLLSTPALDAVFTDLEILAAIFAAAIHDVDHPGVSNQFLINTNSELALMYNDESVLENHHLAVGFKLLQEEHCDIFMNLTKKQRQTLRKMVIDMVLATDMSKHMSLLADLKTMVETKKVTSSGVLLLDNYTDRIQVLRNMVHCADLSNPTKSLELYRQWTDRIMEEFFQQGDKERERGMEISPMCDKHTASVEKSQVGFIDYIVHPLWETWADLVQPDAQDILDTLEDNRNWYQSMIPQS
PROCEDURE SUMMARY: Phosphodiesterase inhibitory activity, PDE4 ([3H]cAMP, recombinant enzyme)
ASSAY CONTEXT: 30° C., 20 minutes, read-out: IC50(μmol/L) PDE4
OBSERVABLE: IC50

Examples with answers:
1. CCc1ccc2c(-c3ccc(=O)n(CCCCOc4ccc(C5=NNC(=O)CC5)cc4F)n3)ccc(OC)c2n1 [Example 284] ... 0.1 to 1 µmol/L
2. CCc1ccc2c(-c3ccc(=O)n(CCCCOc4ccc(C5=NNC(=O)C5(C)C)cc4)n3)ccc(OC)c2n1 [Example 282] ... 0.1 to 1 µmol/L
3. COc1ccc(-c2ccc(=O)n(CCCCOc3ccc(C4=NNC(=O)CC4C)c(F)c3F)n2)c2sc(C(F)(F)F)nc12 (stereo not shown) [Example 307] ... < 0.1 µmol/L

The reported IC50 value, UniProtKB Q07343, for COc1ccc(-c2ccc(=O)n(CCCCOc3ccc(C4=NNC(=O)C4(C)C)c(F)c3F)n2)c2cc(C(F)(F)F)oc12 [Example 275] reads 0.1 to 1 µmol/L

###

TEST SYSTEM: PDE3A catalytic domain (PDE3Acat) (Homo sapiens)
PROCEDURE SUMMARY: Phosphodiesterase inhibitory activity, PDE3 ([3H]cAMP, recombinant enzyme)
ASSAY CONTEXT: 30° C., 20 minutes, read-out: IC50(μmol/L) PDE3
OBSERVABLE: IC50

Please review the entries below; each comes with its answer.
1. CCc1nc2c(OC)ccc(-c3ccc(=O)n(CCCCOc4ccc(C5=NNC(=O)CC5)c(F)c4F)n3)c2o1 [Example 333] ... < 0.1 µmol/L
2. CCc1ccc2c(-c3ccc(=O)n(CCCCOc4ccc(C5=NNC(=O)CC5C)cc4OC)n3)ccc(OC)c2n1 (stereo not shown) [Example 288] ... 0.1 to 1 µmol/L
3. COc1ccc(-c2ccc(=O)n(CCCCOc3ccc(C4=NNC(=O)CC4)c(F)c3F)n2)n2cc(C(F)(F)F)nc12 [Example 337] ... 0.1 to 1 µmol/L
4. CCc1ccc2c(C3=NN(CCCCOc4ccc(C5=NNC(=O)C5(C)C)cc4OC)C(=O)CC3C)ccc(OC)c2n1 (stereo not shown) [Example 301] ... ≥ 10 µmol/L
5. CCc1ccc2c(C3=NN(CCCCOc4ccc(C5=NNC(=O)CC5)cc4OC)C(=O)CC3C)ccc(OC)c2n1 (stereo not shown) [Example 297] ... 1 to 10 µmol/L

Below are 2 compounds. Give each one its IC50.
1. COc1ccc(C2=NN(CCCCOc3ccc(C4=NNC(=O)CC4C)cc3)C(=O)CC2C)c2ccc(C(C)C)nc12 (stereo not shown) [Example 269]
2. COc1ccc(C2=NN(CCCCOc3ccc(C4=NNC(=O)CC4C)cc3)C(=O)CC2C)c2sc(C(F)(F)F)nc12 (stereo not shown) [Example 313]

Response:
< 0.1 µmol/L
0.1 to 1 µmol/L
